These measurements were taken from paper PMC10419307.

system: A375 melanoma; assay: CV viability assay; assay type: cell-based, Human; settings: 72 h
Here the recorded IC50 is given for each entry.

Compound: Cc1[nH+]cc(CO)c(C=NNC(N)=S)c1[O-].O.[Cl-].[Cl-].[Cl-].[Fe+3] [Fe-PLTSC, [Fe(PLTSC)Cl2(H2O)]Cl]
IC50: > 100 µM

Compound: Cc1[nH+]cc(CO)c(C=NN=C(N)[S-])c1[O-].Cc1[nH+]cc(CO)c(C=NN=C(N)[S-])c1[O-].O.[Cl-].[Co+3]
IC50: > 100 µM

Compound: Cc1[nH+]cc(CO)c(C=NNC(N)=S)c1[O-].Cc1[nH+]cc(CO)c(C=NNC(N)=S)c1[O-].O.O=[N+]([O-])[O-].O=[N+]([O-])[O-].[Ni+2]
IC50: > 100 µM
